biological target: hT2R4 (Homo sapiens (Human)); assay: hT2R panel inhibition, transient HEK293 G16g44, agonist Chloroquine pH6.5 5 mM; assay type: cell-based; settings: HEK293, compound at 25 μM; receptor activated to EC80 with the corresponding agonist; class symbols; read-out: screening result against bitter receptor 4
Sequence (Q9NYW5 whole entry): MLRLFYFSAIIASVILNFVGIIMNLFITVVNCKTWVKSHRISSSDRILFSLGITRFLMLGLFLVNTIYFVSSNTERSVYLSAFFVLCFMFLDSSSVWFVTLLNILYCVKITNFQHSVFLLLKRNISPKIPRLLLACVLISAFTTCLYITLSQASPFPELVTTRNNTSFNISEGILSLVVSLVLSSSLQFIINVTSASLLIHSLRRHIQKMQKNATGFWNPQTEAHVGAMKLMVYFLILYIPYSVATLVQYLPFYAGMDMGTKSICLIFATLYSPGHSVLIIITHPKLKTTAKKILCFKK
Catalogue of compounds with associated inhibition at 25 µM

Here are 4 compounds together with their reported answers.
COc1ccc(CN2C(=O)N(c3ccc(C(=O)O)cc3)C(=O)C2Cc2ccccc2)cc1 (stereo not drawn) : 40 to 60%
O=C(O)c1ccc(CN(Cc2ccccc2F)S(=O)(=O)c2ccccc2)cc1 : 40 to 60%
CCCOc1ccc(CN(Cc2ccco2)S(=O)(=O)c2ccc(C(=O)O)cc2)cc1 : 40 to 60%
COc1ccccc1CN(Cc1ccco1)S(=O)(=O)c1ccc(C(=O)O)cc1 : 20 to 40%

Exercise: Please report the recorded inhibition at 25 µM for Cc1ccc(S(=O)(=O)N(Cc2ccccc2)CC2CCC(C(=O)O)CC2)cc1 (stereo not drawn) .
Key: 60 to 80%

Exercise: Entry COc1ccc(CN(Cc2ccc(C(=O)O)cc2)S(=O)(=O)c2ccccc2)cc1 please
Key: 40 to 60%
